test_name: AUC infinity in human patient with relapsed solid tumor at 20 mg/m'2, iv administered over 2 to 10 mins on days 1, 2, 8, 9, 15 and 16 of 28-day cycle measured on day 1 of cycle 1 by LC-MS/MS analysis
Assay type: ADME, organism-based
Parameters: route intravenous, time infinity
particulars: plasma
recorded_metric: AUC(0-inf) (µg·h/mL)
One number for each entry, in µg·h/mL.

Task: Could you tell me which AUC(0-inf) is on file for `CC(C)C[C@H](NC(=O)[C@H](CCc1ccccc1)NC(=O)CN1CCOCC1)C(=O)N[C@@H](Cc1ccccc1)C(=O)N[C@@H](CC(C)C)C(=O)[C@@]1(C)CO1` ?
Output: 0.238
